Give measured pKi for each item. Keep answers brief.
assay_target: T1, bovine pancreatic trypsin (bovine, UniProt P00760 24-246)
T1 construct: also called bovine trypsin (Serva)
T1 sequence (P00760 24-246): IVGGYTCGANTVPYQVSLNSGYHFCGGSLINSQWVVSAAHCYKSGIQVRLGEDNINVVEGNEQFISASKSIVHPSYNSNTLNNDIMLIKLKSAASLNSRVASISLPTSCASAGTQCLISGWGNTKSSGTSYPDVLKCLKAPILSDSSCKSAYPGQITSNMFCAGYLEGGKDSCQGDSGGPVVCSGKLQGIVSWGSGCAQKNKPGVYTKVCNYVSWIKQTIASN
assay_protocol: enzyme inhibition; residual trypsin activity fitted to tight-binding equation (Morrison); apparent Ki (Kiapp)
Numbers only, as −log10 of the molar value.

The following binders have reported results that may help.
{"binder": "MCoEeTI-2R-10 (other, Bacillus amyloliquefaciens, mature; Tested as barnase′ fusion protein; also called SE-MG-TR-010 (Bar)) AQVINTFDGVADYLQTYHKLPDNYITKSEAQALGWVASKGNLADVAPGKSIGGDIFSNREGKLPGKSGRTWREADINYTSGFRNSDRILYSSDWLIYKTTDAYQTFTKIRSSSMGVCPRNRQKCRRDSDCLAGCVCGPNGFCGS", "obs_value": 7.52}
{"binder": "MCoEeTI-3R-3 (other, Bacillus amyloliquefaciens, mature; Tested as barnase′ fusion protein; also called SE-MG-TR-020 (Bar)) AQVINTFDGVADYLQTYHKLPDNYITKSEAQALGWVASKGNLADVAPGKSIGGDIFSNREGKLPGKSGRTWREADINYTSGFRNSDRILYSSDWLIYKTTDAYQTFTKIRSSSMGVCPRILRRCRRDSDCLAGCVCGPNGFCGS", "obs_value": 9.70}
{"binder": "MCoEeTI-LKA-7 (other, Bacillus amyloliquefaciens, mature; Tested as barnase′ fusion protein; also called SE-MG-TR-060 (Bar)) AQVINTFDGVADYLQTYHKLPDNYITKSEAQALGWVASKGNLADVAPGKSIGGDIFSNREGKLPGKSGRTWREADINYTSGFRNSDRILYSSDWLIYKTTDAYQTFTKIRSSSMGVCPKILKACRRDSDCLAGCVCGPNGFCGS", "obs_value": 9.70}

Now take the following binder into account.
So for MCoEeTI-KKV-1 (other, Bacillus amyloliquefaciens, mature; Tested as barnase′ fusion protein; also called SE-MG-TR-040 (Bar)) AQVINTFDGVADYLQTYHKLPDNYITKSEAQALGWVASKGNLADVAPGKSIGGDIFSNREGKLPGKSGRTWREADINYTSGFRNSDRILYSSDWLIYKTTDAYQTFTKIRSSSMGKKVGVCPKILKKCRRDSDCLAGCVCGPNGFCGS , the logged pKi turned out to be 9.70
